Measured Tmax, Max, listed per entry.
testDescription: Phase 1 first-in-human study, pharmacokinetics in plasma
assayContext: cohort B, 4 mg PO at 0 and +10 hours

Consider the reported Tmax, Max for these compounds:
[[record]]
compound = "COCCC1CC2CN3C=Cc4c([nH]c5ccccc45)C(C(=O)OC)(C2)C13 (stereo not shown) [M4]"
measuredresult = "12 h"

[[record]]
compound = "COC(=O)C12CC3CC(CCO)C1N(C=Cc1c2[nH]c2ccccc12)C3 (stereo not shown) [M2]"
measuredresult = "12 h"

[[record]]
compound = "COCC[C@H]1CC2CN3CCc4c([nH]c5ccccc45)[C@](C(=O)OC)(C2)[C@H]13 [18-MC, 18-methoxycoronaridine]"
measuredresult = "10.25 h"


Here is the next item to consider.
Form field: reported Tmax, Max of COC(=O)C12CC3CC(CC(=O)O)C1N(CCc1c2[nH]c2ccccc12)C3 (stereo not shown) [M5]
11 h

----------
testDescription: Phase 1 first-in-human study, pharmacokinetics in plasma
assayContext: cohort B, 4 mg PO at 0 and +10 hours
propertyMeasured: AUCall, Min (ng·h/mL)
Express it in ng·h/mL; write the number only.

Some entries whose results are on file:
[[record]]
compound = "COC(=O)C12CC3CC(CCO)C1N(C=Cc1c2[nH]c2ccccc12)C3 (stereo not shown)"
propertymeasured = "AUCall, Min"
measuredresult = 287

[[record]]
compound = "COCC[C@H]1CC2CN3CCc4c([nH]c5ccccc45)[C@](C(=O)OC)(C2)[C@H]13"
propertymeasured = "AUCall, Min"
measuredresult = 124

[[record]]
compound = "COCCC1CC2CN3C=Cc4c([nH]c5ccccc45)C(C(=O)OC)(C2)C13 (stereo not shown)"
propertymeasured = "AUCall, Min"
measuredresult = 1304


# input for lookup
Please give the measured AUCall, Min for this compound: COC(=O)C12CC3CC(CC(=O)O)C1N(CCc1c2[nH]c2ccccc12)C3 (stereo not shown)
104

----------
testDescription: Phase 1 first-in-human study, pharmacokinetics in plasma
assayContext: both, human, plasma, po, 4 mg
Catalogue of half-life readings, one per entry.
Numbers only; they are read as h.

Below: 2 molecules and their reported half-life.
[[record]]
molecule = "COC(=O)C12CC3CC(CCO)C1N(C=Cc1c2[nH]c2ccccc12)C3 (stereo not drawn) [M2]"
measuredresult = 44.1

[[record]]
molecule = "COC(=O)C12CC3CC(CC(=O)O)C1N(CCc1c2[nH]c2ccccc12)C3 (stereo not drawn) [M5]"
measuredresult = 46.8


Turning to the following molecule.
Please give the measured half-life for this molecule: COCCC1CC2CN3C=Cc4c([nH]c5ccccc45)C(C(=O)OC)(C2)C13 (stereo not drawn) [M4]
22.1

----------
testDescription: Phase 1 first-in-human study, pharmacokinetics in plasma
assayContext: both, human, plasma, oral, 4 mg
propertyMeasured: Tmax

# query: Tmax of entry COC(=O)C12CC3CC(CCO[C@@H]4O[C@H](C(=O)O)[C@@H](O)[C@H](O)[C@H]4O)C1N(C=Cc1c2[nH]c2ccccc12)C3 (stereo partly shown) [P10]
6 to 10 h

----------
assaySystem: CYP2D6 (Homo sapiens, UniProt P10635)
Sequence (P10635 whole entry): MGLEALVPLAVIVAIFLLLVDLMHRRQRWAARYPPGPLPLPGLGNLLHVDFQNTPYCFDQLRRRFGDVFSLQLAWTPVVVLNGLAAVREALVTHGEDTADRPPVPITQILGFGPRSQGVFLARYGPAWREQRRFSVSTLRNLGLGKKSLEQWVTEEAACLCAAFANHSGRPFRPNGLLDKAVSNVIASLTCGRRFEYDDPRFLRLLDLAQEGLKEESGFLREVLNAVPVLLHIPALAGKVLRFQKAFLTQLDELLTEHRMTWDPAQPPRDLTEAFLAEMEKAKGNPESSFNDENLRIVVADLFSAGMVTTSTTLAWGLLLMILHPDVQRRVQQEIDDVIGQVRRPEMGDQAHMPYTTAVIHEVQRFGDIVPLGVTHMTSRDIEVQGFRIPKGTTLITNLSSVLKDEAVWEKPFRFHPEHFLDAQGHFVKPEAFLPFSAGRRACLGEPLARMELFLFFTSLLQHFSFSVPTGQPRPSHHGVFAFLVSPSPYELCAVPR
assayContext: recombinant enzyme
propertyMeasured: IC50

Given the entry COCC[C@H]1CC2CN3CCc4c([nH]c5ccccc45)[C@](C(=O)OC)(C2)[C@H]13 [18-MC, 18-methoxycoronaridine] , what IC50 was observed with CYP2D6 (Homo sapiens, UniProt P10635)?
> 100 µM

----------
testDescription: Phase 1 first-in-human study, pharmacokinetics in plasma
assayContext: cohort B, 4 mg PO at 0 and +10 hours
propertyMeasured: Half-Life, Max (h)
Your answer should be a plain number; it is taken to be in h.

Answered cases to consult:
[[record]]
compound = "COC(=O)C12CC3CC(CC(=O)O)C1N(CCc1c2[nH]c2ccccc12)C3 (stereo not shown) [M5]"
propertymeasured = "Half-Life, Max"
measuredresult = 74.7

[[record]]
compound = "COCCC1CC2CN3C=Cc4c([nH]c5ccccc45)C(C(=O)OC)(C2)C13 (stereo not shown) [M4]"
propertymeasured = "Half-Life, Max"
measuredresult = 34.3

[[record]]
compound = "COCC[C@H]1CC2CN3CCc4c([nH]c5ccccc45)[C@](C(=O)OC)(C2)[C@H]13 [18-MC, 18-methoxycoronaridine]"
propertymeasured = "Half-Life, Max"
measuredresult = 52.2


So what's the measured Half-Life, Max for this one? COC(=O)C12CC3CC(CCO)C1N(C=Cc1c2[nH]c2ccccc12)C3 (stereo not shown) [M2]
97.8
